- System: Staphylococcus epidermidis (TISTR 517)
test-readout: MIC

compound: O=C(O)c1cccc(O)c1O [compound 5, 2,3-dihydroxybenzoic acid]
result: 15 µg/mL

compound: O=c1c(-c2ccc(O)cc2)coc2cc(O)cc(O)c12
result: > 100 µg/mL

compound: O=C(O)c1cc(O)ccc1O [compound 6, 2,5-dihydroxybenzoic acid]
result: 15 µg/mL

compound: CC[C@H](CC[C@@H](C)[C@H]1CC[C@H]2[C@@H]3CC=C4C[C@@H](O[C@@H]5O[C@H](CO)[C@@H](O)[C@H](O)[C@H]5O)CC[C@]4(C)[C@H]3CC[C@]12C)C(C)C [compound 4, β-sitosterol-D-glucoside]
result: > 100 µg/mL

compound: CCCCCCCCCCCCCCCC(=O)O
result: > 100 µg/mL

* * *

Let's go through some recorded MIC values for Microsporum gypseum together.
test-readout: MIC (µg/mL)

compound: O=C(O)c1cc(O)ccc1O [compound 6, 2,5-dihydroxybenzoic acid]
test-readout: MIC
value-modifier: =
readout-number: 15
--
compound: O=C(O)c1cccc(O)c1O [compound 5, 2,3-dihydroxybenzoic acid]
test-readout: MIC
value-modifier: =
readout-number: 10
--
compound: CC[C@H](CC[C@@H](C)[C@H]1CC[C@H]2[C@@H]3CC=C4C[C@@H](O[C@@H]5O[C@H](CO)[C@@H](O)[C@H](O)[C@H]5O)CC[C@]4(C)[C@H]3CC[C@]12C)C(C)C [compound 4, β-sitosterol-D-glucoside]
test-readout: MIC
value-modifier: >
readout-number: 100
--
compound: CCCCCCCCCCCCCCCC(=O)O
test-readout: MIC
value-modifier: >
readout-number: 100
--
compound: O=c1c(-c2ccc(O)cc2)coc2cc(O)cc(O)c12
test-readout: MIC
value-modifier: >
readout-number: 100

* * *

Form field: MFC (one value per entry).
- System: Candida albicans (TISTR 5779)
- procedure-details: MIC/MFC by micro-dilution method
- assay-setup: Candida albicans, TISTR5779
test-readout: MFC (µg/mL)

compound: O=C(O)c1cccc(O)c1O [compound 5, 2,3-dihydroxybenzoic acid]
value-modifier: =
readout-number: 15
--
compound: CCCCCCCCCCCCCCCC(=O)O
value-modifier: >
readout-number: 100
--
compound: CC[C@H](CC[C@@H](C)[C@H]1CC[C@H]2[C@@H]3CC=C4C[C@@H](O[C@@H]5O[C@H](CO)[C@@H](O)[C@H](O)[C@H]5O)CC[C@]4(C)[C@H]3CC[C@]12C)C(C)C [compound 4, β-sitosterol-D-glucoside]
value-modifier: >
readout-number: 100
--
compound: O=c1c(-c2ccc(O)cc2)coc2cc(O)cc(O)c12
value-modifier: >
readout-number: 100
--
compound: O=C(O)c1cc(O)ccc1O [compound 6, 2,5-dihydroxybenzoic acid]
value-modifier: =
readout-number: 15

* * *

- Test system: Candida albicans (TISTR 5779)
Form field: MIC (one value per entry).
test-readout: MIC (µg/mL)

compound: CC[C@H](CC[C@@H](C)[C@H]1CC[C@H]2[C@@H]3CC=C4C[C@@H](O[C@@H]5O[C@H](CO)[C@@H](O)[C@H](O)[C@H]5O)CC[C@]4(C)[C@H]3CC[C@]12C)C(C)C [compound 4, β-sitosterol-D-glucoside]
unit-tag: µg/mL
value-modifier: >
readout-number: 100

compound: O=c1c(-c2ccc(O)cc2)coc2cc(O)cc(O)c12
unit-tag: µg/mL
value-modifier: >
readout-number: 100

compound: O=C(O)c1cccc(O)c1O [compound 5, 2,3-dihydroxybenzoic acid]
unit-tag: µg/mL
value-modifier: =
readout-number: 10

compound: CCCCCCCCCCCCCCCC(=O)O
unit-tag: µg/mL
value-modifier: >
readout-number: 100

compound: O=C(O)c1cc(O)ccc1O [compound 6, 2,5-dihydroxybenzoic acid]
unit-tag: µg/mL
value-modifier: =
readout-number: 15
